# Subject of test: Thyrotropin receptor (Homo sapiens) (UniProt P16473)
# Sequence (P16473 whole entry, looked up): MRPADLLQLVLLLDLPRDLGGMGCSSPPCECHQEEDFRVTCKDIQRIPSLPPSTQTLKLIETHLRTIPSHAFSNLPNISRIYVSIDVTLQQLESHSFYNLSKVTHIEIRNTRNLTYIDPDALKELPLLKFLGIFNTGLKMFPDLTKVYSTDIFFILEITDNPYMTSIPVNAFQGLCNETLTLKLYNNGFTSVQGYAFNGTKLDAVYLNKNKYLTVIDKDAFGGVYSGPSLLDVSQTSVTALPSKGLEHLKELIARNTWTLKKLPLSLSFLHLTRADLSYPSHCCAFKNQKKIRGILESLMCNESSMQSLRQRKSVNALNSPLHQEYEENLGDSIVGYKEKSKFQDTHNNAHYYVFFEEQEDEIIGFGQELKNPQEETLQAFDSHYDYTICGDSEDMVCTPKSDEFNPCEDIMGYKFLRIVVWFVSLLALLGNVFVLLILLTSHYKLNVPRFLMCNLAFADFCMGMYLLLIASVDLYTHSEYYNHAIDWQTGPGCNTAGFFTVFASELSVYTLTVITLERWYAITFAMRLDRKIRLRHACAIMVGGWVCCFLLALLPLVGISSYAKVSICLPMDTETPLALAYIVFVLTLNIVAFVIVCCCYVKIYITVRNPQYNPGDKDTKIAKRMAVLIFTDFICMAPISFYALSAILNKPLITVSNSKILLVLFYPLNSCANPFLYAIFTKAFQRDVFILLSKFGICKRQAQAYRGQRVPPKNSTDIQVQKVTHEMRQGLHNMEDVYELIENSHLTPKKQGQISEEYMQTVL
# Assay name: qHTS assay to identify small molecule antagonists of the thyroid stimulating hormone receptor (TSHR) signaling pathway (AID 1259385); note: nearly all actives have a fitted effect of over 20% in size; note: potency is the fitted concentration of half-maximal effect
# Condition description: TSHR-HEK293 cAMP HTRF, TSH-stimulated antagonist mode; series mostly up to 92.4 µM
Records with an inconclusive call do not appear. Active and inactive are the calls of the source. Calls come from the whole dose curve.
Readout name: Potency

{"Smiles repr": "CCCOCC(=Nc1ccc(Cl)cc1C(F)(F)F)n1ccnc1", "Readout name": "Potency", "Observed": "inactive"}
{"Smiles repr": "N#Cc1ccc(O)cc1", "Readout name": "Potency", "Observed": "inactive"}
{"Smiles repr": "O=[N+]([O-])O.O=[N+]([O-])O.[Cd]", "Readout name": "Potency", "Observed": "inactive"}
{"Smiles repr": "CC(C)[C@H](C(=O)O[C@H](C#N)c1cccc(Oc2ccccc2)c1)c1ccc(Cl)cc1", "Readout name": "Potency", "Observed": "inactive"}
{"Smiles repr": "COS(=O)(=O)c1ccc(C)cc1", "Readout name": "Potency", "Observed": "inactive"}
{"Smiles repr": "O=[N+]([O-])c1ccc(Oc2ccc(C(F)(F)F)cc2[N+](=O)[O-])cc1", "Readout name": "Potency", "Observed": "inactive"}
{"Smiles repr": "CCc1nn(C)c(C(=O)NCc2ccc(C(C)(C)C)cc2)c1Cl", "Readout name": "Potency", "Observed": "61.1 µM (active)"}
{"Smiles repr": "CCC[CH2][Sn]([CH2]CCC)([CH2]CCC)[O]C(=O)c1ccccc1", "Readout name": "Potency", "Observed": "17.2 µM (active)"}
{"Smiles repr": "C[As+](C)(C)CC(=O)[O-]", "Readout name": "Potency", "Observed": "inactive"}
{"Smiles repr": "Cc1ccc(CCl)cc1", "Readout name": "Potency", "Observed": "inactive"}
